The entries below come with measured pKi values attached.
experiment: Inhibition of MAOB in baboon liver mitochondria assessed as MMDP+ production by spectrophotometry; parameters: species or system Papio hamadryas
pKi: −log10 of the molar value.
TEST READOUT: pKi

{"columns": ["SMILES STR", "TEST READOUT", "RECORDED RESULT"],
 "data": [
  ["Cn1c(=O)c2c(nc(OCc3cccc(C(F)(F)F)c3)n2C)n(C)c1=O", "pKi", 7.19],
  ["Cn1c(=O)c2c(nc(OCc3ccccc3)n2C)n(C)c1=O", "pKi", 5.84],
  ["Cn1c(=O)c2c(nc(OCc3cccc(Cl)c3)n2C)n(C)c1=O", "pKi", 7.16],
  ["Cc1cccc(COc2nc3c(c(=O)n(C)c(=O)n3C)n2C)c1", "pKi", 6.40],
  ["Cn1c(=O)c2c(nc(OCc3cccc(Br)c3)n2C)n(C)c1=O", "pKi", 7.19],
  ["COc1cccc(COc2nc3c(c(=O)n(C)c(=O)n3C)n2C)c1", "pKi", 6.04],
  ["Cn1c(=O)c2c(nc(OCc3cccc(F)c3)n2C)n(C)c1=O", "pKi", 6.51]
]}

----------
species on record: Homo sapiens; experiment: Selectivity for human recombinant MAOA over human recombinant MAOB

{"columns": ["SMILES STR", "Ratio Ki"],
 "data": [
  ["Cn1c(=O)c2c(nc(OCc3cccc(C(F)(F)F)c3)n2C)n(C)c1=O", 0.039],
  ["Cn1c(=O)c2c(nc(OCc3ccccc3)n2C)n(C)c1=O", 1.37],
  ["Cn1c(=O)c2c(nc(OCc3cccc(F)c3)n2C)n(C)c1=O", 0.49],
  ["COc1cccc(COc2nc3c(c(=O)n(C)c(=O)n3C)n2C)c1", 0.31],
  ["Cn1c(=O)c2c(nc(OCc3cccc(Br)c3)n2C)n(C)c1=O", 0.069],
  ["Cc1cccc(COc2nc3c(c(=O)n(C)c(=O)n3C)n2C)c1", 1.29],
  ["Cn1c(=O)c2c(nc(OCc3cccc(Cl)c3)n2C)n(C)c1=O", 0.16]
]}

----------
The entries below come with measured pKi values attached.
molecular target: Amine oxidase [flavin-containing] A (Homo sapiens, UniProt P21397); assay: Inhibition of human recombinant MAOA assessed as 4-hydroxyquinoline formation by fluorimetry
pKi: −log10 of the molar value.

{"columns": ["SMILES STR", "TGT", "pKi"],
 "data": [
  ["COc1cccc(COc2nc3c(c(=O)n(C)c(=O)n3C)n2C)c1", "Amine oxidase [flavin-containing] A (Homo sapiens, UniProt P21397)", 6.47],
  ["Cn1c(=O)c2c(nc(OCc3cccc(F)c3)n2C)n(C)c1=O", "Amine oxidase [flavin-containing] A (Homo sapiens, UniProt P21397)", 6.74],
  ["Cn1c(=O)c2c(nc(OCc3cccc(Cl)c3)n2C)n(C)c1=O", "Amine oxidase [flavin-containing] A (Homo sapiens, UniProt P21397)", 7.44],
  ["Cn1c(=O)c2c(nc(OCc3cccc(C(F)(F)F)c3)n2C)n(C)c1=O", "Amine oxidase [flavin-containing] A (Homo sapiens, UniProt P21397)", 7.29],
  ["Cn1c(=O)c2c(nc(OCc3cccc(Br)c3)n2C)n(C)c1=O", "Amine oxidase [flavin-containing] A (Homo sapiens, UniProt P21397)", 7.64],
  ["Cc1cccc(COc2nc3c(c(=O)n(C)c(=O)n3C)n2C)c1", "Amine oxidase [flavin-containing] A (Homo sapiens, UniProt P21397)", 6.74],
  ["Cn1c(=O)c2c(nc(OCc3ccccc3)n2C)n(C)c1=O", "Amine oxidase [flavin-containing] A (Homo sapiens, UniProt P21397)", 6.23]
]}

----------
Molecular target: Amine oxidase [flavin-containing] A (Homo sapiens, UniProt P21397)
Sequence (P21397 whole entry): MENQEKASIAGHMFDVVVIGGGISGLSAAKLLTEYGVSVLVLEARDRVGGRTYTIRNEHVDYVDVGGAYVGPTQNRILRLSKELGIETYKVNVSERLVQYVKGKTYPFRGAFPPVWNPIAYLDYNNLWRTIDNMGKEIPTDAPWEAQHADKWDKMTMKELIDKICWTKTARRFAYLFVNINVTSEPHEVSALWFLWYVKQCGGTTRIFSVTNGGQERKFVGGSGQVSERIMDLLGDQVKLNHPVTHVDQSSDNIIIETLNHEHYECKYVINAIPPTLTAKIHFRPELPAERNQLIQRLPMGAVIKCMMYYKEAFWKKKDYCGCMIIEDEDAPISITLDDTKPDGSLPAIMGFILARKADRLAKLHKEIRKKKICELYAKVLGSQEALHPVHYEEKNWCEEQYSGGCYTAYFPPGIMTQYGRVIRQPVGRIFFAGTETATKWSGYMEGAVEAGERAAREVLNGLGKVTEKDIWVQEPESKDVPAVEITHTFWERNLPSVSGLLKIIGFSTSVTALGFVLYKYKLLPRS
Experiment: Inhibition of human recombinant MAOA assessed as 4-hydroxyquinoline formation by fluorimetry
pIC50: −log10 of the molar value.

{"columns": ["SMILES STR", "TGT", "pIC50"],
 "data": [
  ["Cn1c(=O)c2c(nc(OCc3cccc(Cl)c3)n2C)n(C)c1=O", "Amine oxidase [flavin-containing] A (Homo sapiens, UniProt P21397)", 6.97],
  ["Cn1c(=O)c2c(nc(OCc3cccc(C(F)(F)F)c3)n2C)n(C)c1=O", "Amine oxidase [flavin-containing] A (Homo sapiens, UniProt P21397)", 6.82],
  ["Cn1c(=O)c2c(nc(OCc3ccccc3)n2C)n(C)c1=O", "Amine oxidase [flavin-containing] A (Homo sapiens, UniProt P21397)", 5.75],
  ["Cc1cccc(COc2nc3c(c(=O)n(C)c(=O)n3C)n2C)c1", "Amine oxidase [flavin-containing] A (Homo sapiens, UniProt P21397)", 6.26],
  ["Cn1c(=O)c2c(nc(OCc3cccc(Br)c3)n2C)n(C)c1=O", "Amine oxidase [flavin-containing] A (Homo sapiens, UniProt P21397)", 7.17],
  ["COc1cccc(COc2nc3c(c(=O)n(C)c(=O)n3C)n2C)c1", "Amine oxidase [flavin-containing] A (Homo sapiens, UniProt P21397)", 6.00],
  ["Cn1c(=O)c2c(nc(OCc3cccc(F)c3)n2C)n(C)c1=O", "Amine oxidase [flavin-containing] A (Homo sapiens, UniProt P21397)", 6.27]
]}

----------
molecular target: Amine oxidase [flavin-containing] B (Homo sapiens); experiment: Inhibition of human recombinant MAOB assessed as 4-hydroxyquinoline formation by fluorimetry
Sequence (P27338 whole entry): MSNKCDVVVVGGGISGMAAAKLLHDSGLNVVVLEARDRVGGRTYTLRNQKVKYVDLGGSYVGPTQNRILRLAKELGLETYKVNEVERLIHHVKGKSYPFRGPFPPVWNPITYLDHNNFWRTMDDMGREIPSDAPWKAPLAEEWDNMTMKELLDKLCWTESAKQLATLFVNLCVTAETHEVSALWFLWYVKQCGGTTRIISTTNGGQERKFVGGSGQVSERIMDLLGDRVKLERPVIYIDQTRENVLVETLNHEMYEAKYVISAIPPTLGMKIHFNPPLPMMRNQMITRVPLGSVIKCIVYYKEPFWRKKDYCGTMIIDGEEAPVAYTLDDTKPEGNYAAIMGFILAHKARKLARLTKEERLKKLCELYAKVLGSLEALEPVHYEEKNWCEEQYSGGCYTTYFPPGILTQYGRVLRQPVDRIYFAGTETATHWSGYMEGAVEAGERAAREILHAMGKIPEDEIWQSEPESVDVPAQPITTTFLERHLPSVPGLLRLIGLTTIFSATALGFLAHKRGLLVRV
pIC50: −log10 of the molar value.
The entries below come with measured pIC50 values attached.

{"columns": ["SMILES STR", "pIC50"],
 "data": [
  ["Cn1c(=O)c2c(nc(OCc3cccc(Br)c3)n2C)n(C)c1=O", 6.03],
  ["Cn1c(=O)c2c(nc(OCc3cccc(F)c3)n2C)n(C)c1=O", 5.97],
  ["Cn1c(=O)c2c(nc(OCc3cccc(Cl)c3)n2C)n(C)c1=O", 6.18],
  ["Cn1c(=O)c2c(nc(OCc3ccccc3)n2C)n(C)c1=O", 5.91],
  ["COc1cccc(COc2nc3c(c(=O)n(C)c(=O)n3C)n2C)c1", 5.50],
  ["Cn1c(=O)c2c(nc(OCc3cccc(C(F)(F)F)c3)n2C)n(C)c1=O", 5.43],
  ["Cc1cccc(COc2nc3c(c(=O)n(C)c(=O)n3C)n2C)c1", 6.40]
]}

----------
target: Amine oxidase [flavin-containing] B (Homo sapiens); assay: Inhibition of human recombinant MAOB assessed as 4-hydroxyquinoline formation by fluorimetry
pKi: −log10 of the molar value.

{"columns": ["SMILES STR", "pKi"],
 "data": [
  ["Cn1c(=O)c2c(nc(OCc3ccccc3)n2C)n(C)c1=O", 6.37],
  ["Cc1cccc(COc2nc3c(c(=O)n(C)c(=O)n3C)n2C)c1", 6.85],
  ["Cn1c(=O)c2c(nc(OCc3cccc(Cl)c3)n2C)n(C)c1=O", 6.64],
  ["COc1cccc(COc2nc3c(c(=O)n(C)c(=O)n3C)n2C)c1", 5.96],
  ["Cn1c(=O)c2c(nc(OCc3cccc(C(F)(F)F)c3)n2C)n(C)c1=O", 5.89],
  ["Cn1c(=O)c2c(nc(OCc3cccc(Br)c3)n2C)n(C)c1=O", 6.48],
  ["Cn1c(=O)c2c(nc(OCc3cccc(F)c3)n2C)n(C)c1=O", 6.43]
]}
